# Tested on: Hepatitis B virus
# protocol text: Antiviral activity against HBV infected in AML12HBV10 cells assessed as reduction viral replication incubated for 48 hrs
# Format: functional, organism-based
# condition notes: AML12HBV10, 48 h
quantity kind: EC50 (nM)

INSERT INTO measurements (molecule, target_under_test, meas_value) VALUES
  ('O=C(Nc1cc(F)c(F)c(Cl)c1)N1CCNc2ccccc21', 'Hepatitis B virus', 930);

I. O=C(Nc1ccc(F)c(Cl)c1)N1CCc2ccccc21
II. O=C(Nc1ccc(F)c(Cl)c1)N1c2ccccc2NCC1CN1CCOCC1 (stereo not drawn)
Param pair: I , II . Output: the one whose EC50 is numerically greater. Kindly give the label for the entry you pick.
II
